Just for reference, patent US20130261165A1 is where these values come from.

Test system: En-1
Assay remarks: En-1 mRNA expression by qPCR in primary ventral midbrain cultures
Conditions: Mus musculus, 24 h, read-out: Fold Increase in En-1 Expression
Value kind: fold induction at 10 µM
The response must contain the number and no unit.

Examples with their reported fold induction at 10 µM follow.
>  <Compound>
Cn1cc[nH]c1=S

>  <fold induction at 10 µM>
0.2

$$$$
>  <Compound>
CCCCNC(=O)NS(=O)(=O)c1ccc(C)cc1 [Tolbutamide]

>  <fold induction at 10 µM>
21.6

$$$$
>  <Compound>
CO[C@@]1(NC(=O)C(C(=O)O)c2ccc(O)cc2)C(=O)N2C(C(=O)O)=C(CSc3nnnn3C)CO[C@@H]21 (stereo partly shown) [Moxalactam disodium]

>  <fold induction at 10 µM>
4.34

$$$$

Supply fold induction at 10 µM value. Item: CC1(C)O[C@@H]2C[C@H]3[C@@H]4C[C@H](F)C5=CC(=O)CC[C@]5(C)[C@H]4[C@@H](O)C[C@]3(C)[C@]2(C(=O)CO)O1 [Flurandrenolide]
1.5
